Biological target: human orexin 1 receptor (Homo sapiens)
Construct: expressed in transfected cells
Assay: Radioligand binding assay ([3H]-SB649868 competition), human orexin 1 receptor
Details: radioligand [3H]-SB649868; read-out: Binding hOx1R Kd
Description: Radioligand Binding Assay […] Bound radioactivity was measured, and data were analysed with the program XLFIT or Graphpad Prism. Protein concentration was determined according to the Bradford/BioRad Protein Assay Kit. […]
Reported Endpoint: pKd
Conceptually, pKd converts a concentration in mol/L into minus its log10.

Looking for the measured pKd of `COCc1cccc(-c2ocnc2CN2CCNC3(CCN(c4nc(C)cc(OC)n4)CC3)C2=O)c1` , can you help?
5.88

Give its pKd value. Item: COc1cc(C)nc(N2CCC3(CCCN(Cc4c[nH]c5ccccc45)C3=O)C2)n1 (centres unmarked)
7.85

Could you share which pKd value was measured for `COc1cccc(-c2ocnc2CN2CCOC3(CCN(c4nc(C)cc(OC)n4)CC3)C2=O)c1` ?
7.24

// query pKd value for entry `COc1cc(C)nc(N2CCC3(CC2)NCCN(Cc2n[nH]c4ccccc24)C3=O)n1`
5.94

Entry COc1cc(C)nc(N2CCC3(CCCN(Cc4ccccc4-c4nc(C)no4)C3=O)C2)n1 (centres unmarked) : reported pKd = ?
6.77

###

molecular target: human orexin 1 receptor (Homo sapiens, UniProt O43613); construct: expressed in transfected cells; assay: Calcium accumulation in cells (FLIPR), antagonism of orexin A, human orexin 1 receptor; assay type: cell-based; details: measured at a concentration of 10 μM of compound; read-out: FLIPR hOx1R % inhibition
Sequence (O43613 whole entry): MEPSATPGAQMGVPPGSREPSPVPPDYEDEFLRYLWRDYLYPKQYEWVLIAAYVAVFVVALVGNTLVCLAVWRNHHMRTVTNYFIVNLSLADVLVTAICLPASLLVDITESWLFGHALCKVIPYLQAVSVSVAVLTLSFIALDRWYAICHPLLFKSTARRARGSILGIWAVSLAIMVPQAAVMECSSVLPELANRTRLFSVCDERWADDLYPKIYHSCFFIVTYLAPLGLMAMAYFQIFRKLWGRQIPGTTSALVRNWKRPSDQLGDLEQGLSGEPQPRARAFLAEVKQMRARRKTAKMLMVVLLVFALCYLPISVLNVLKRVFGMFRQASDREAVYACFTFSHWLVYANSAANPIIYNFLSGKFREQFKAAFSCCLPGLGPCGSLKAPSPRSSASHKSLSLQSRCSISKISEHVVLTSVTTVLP
Please respond with reported inhibition at 10 µM for every item in the list.
Numbers only here, please. The scale is %.

Bench note: what inhibition at 10 µM did Cc1cncc(N2CCC3(CC2)COCC(=O)N3Cc2cccc3[nH]ccc23)n1 [Example 8.14] show?
14

What does the data say about its inhibition at 10 µM? Entry: COc1nc(C)cc(N2CCC3(CCN(Cc4c[nH]c5ccccc45)C3=O)C2)n1 (stereo not shown) [Example 5.36]
18

For the molecule shown here, Cc1cc(N2CCOCC2)nc(N2CCC3(CCN(Cc4c[nH]c5ccccc45)C3=O)C2)n1 (stereo not shown) [Example 5.25] , give the reported inhibition at 10 µM.
71

Data request, read-out inhibition at 10 µM, for COc1ccnc(N2CCC3(CC2)NCCN(Cc2nc(C)oc2-c2ccccc2)C3=O)n1 [Example 1.22]
19

###

Target: human orexin 2 receptor (Homo sapiens)
Construct: expressed in transfected cells
Sequence (O43614 1-444): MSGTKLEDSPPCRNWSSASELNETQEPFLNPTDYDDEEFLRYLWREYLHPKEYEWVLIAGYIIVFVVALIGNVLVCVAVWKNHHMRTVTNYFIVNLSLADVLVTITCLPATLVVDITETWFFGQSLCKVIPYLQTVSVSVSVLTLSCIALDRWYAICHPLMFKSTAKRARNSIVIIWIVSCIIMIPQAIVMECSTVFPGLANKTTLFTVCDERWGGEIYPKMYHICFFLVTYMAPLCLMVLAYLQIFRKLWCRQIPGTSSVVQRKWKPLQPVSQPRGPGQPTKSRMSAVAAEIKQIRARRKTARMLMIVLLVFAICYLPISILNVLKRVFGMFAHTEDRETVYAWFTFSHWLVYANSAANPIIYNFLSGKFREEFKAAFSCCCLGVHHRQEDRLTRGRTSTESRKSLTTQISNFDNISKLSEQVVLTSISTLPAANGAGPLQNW
Assay: Radioligand binding assay ([3H]-SB649868 competition), human orexin 2 receptor
Details: radioligand [3H]-SB649868; read-out: Binding hOx2R Kd
Can you tell me log10 Kd for the items I'm about to list?
The figures below represent log10 of Kd, where Kd is stated in nM.

What measured log10 Kd is associated with `COc1cccc(-c2ocnc2CN2CCNC3(CCN(c4nc(C)cc(C#N)n4)CC3)C2=O)c1` on human orexin 2 receptor (Homo sapiens)?
1.57

Value wanted: log10 Kd (human orexin 2 receptor (Homo sapiens)) of entry `Cc1cc(C#N)nc(N2CCC3(CC2)NCCN(Cc2c[nH]c4ccccc24)C3=O)n1`
1.90

Under human orexin 2 receptor (Homo sapiens): log10 Kd value of `COc1cccc(-c2n[nH]nc2CN2CCOC3(CCN(c4nc(C)cc(C)n4)CC3)C2=O)c1` ?
1.20

What measured log10 Kd is associated with CN(C)c1cc(C(F)(F)F)nc(N2CCC3(CCN(Cc4c[nH]c5ccccc45)C3=O)C2)n1 (stereo not drawn) on human orexin 2 receptor (Homo sapiens)?
2.71

Give human orexin 2 receptor (Homo sapiens) log10 Kd for `Cc1cc(C)nc(N2CCC3(CC2)OCCN(Cc2n[nH]c4ccccc24)C3=O)n1`
1.85

Quick check: log10 Kd on human orexin 2 receptor (Homo sapiens), item COc1cc(C)nc(N2CC[C@@]3(CCCN(Cc4c[nH]c5ccccc45)C3=O)C2)n1 (single isomer, unassigned) ?
2.38

Kindly state the measured log10 Kd obtained for `COc1cc(C)nc(N2CCC3(CCN(Cc4c[nH]c5ccccc45)C3=O)CC2)n1` with human orexin 2 receptor (Homo sapiens).
3.01

GET /values?readout=log10 Kd&system=human orexin 2 receptor (Homo sapiens)&item= Cc1ccnc(N2CCC3(CCCN(Cc4c[nH]c5ccccc45)C3=O)C2)n1 (stereo not drawn)
1.86

Lookup: log10 Kd / human orexin 2 receptor (Homo sapiens) / `Cc1cc(C)nc(N2CCC3(CC2)NCCN(Cc2c[nH]c4ccc(F)cc24)C3=O)n1`
1.23

Give log10 Kd (human orexin 2 receptor (Homo sapiens)) of the following compound: `COc1cccc(-c2ocnc2CN2CCNC3(CCN(c4nc(C)cc(C)n4)CC3)C2=O)c1`
1.40

Short answer please: log10 Kd, human orexin 2 receptor (Homo sapiens), entry `COc1cccc(-c2sc(C)nc2CN2CCNC3(CCN(c4nc(C)cc(C)n4)CC3)C2=O)c1`
1.54

Recall the recorded log10 Kd for `Cc1ccc(C)c(CN2C(=O)COCC23CCN(c2nc(C)cc(C)n2)CC3)c1` with human orexin 2 receptor (Homo sapiens) and state it.
2.22

So what log10 Kd did `Cc1cc(C)nc(N2CCC3(CC2)NCCN(Cc2nn(C)cc2-c2cccc(C(F)(F)F)c2)C3=O)n1` get with human orexin 2 receptor (Homo sapiens)?
2.26

// map `COc1ccc2[nH]nc(CN3CCNC4(CCN(c5nc(C)cc(C)n5)CC4)C3=O)c2c1` to recorded log10 Kd (system: human orexin 2 receptor (Homo sapiens))
1.04

Item: `COc1cccc(-c2oc(C)nc2CN2CCNC3(CCN(c4nc(C)cc(C)n4)CC3)C2=O)c1` Test system: human orexin 2 receptor (Homo sapiens) Read-out: log10 Kd Value: ?
1.34

What reported log10 Kd corresponds to `N#Cc1ccnc(N2CCC3(CCC(=O)N3Cc3cccc4[nH]ccc34)CC2)c1` on human orexin 2 receptor (Homo sapiens)?
2.54

Record COc1cc(C)nc(N2CCC3(CCCN(Cc4n[nH]c5ccccc45)C3=O)C2)n1 (stereo not drawn) : what is its log10 Kd with human orexin 2 receptor (Homo sapiens)?
2.14

Item: `Cc1cc(C)nc(N2CCC3(CC2)NCCN(Cc2nn(C)cc2-c2cccc(C(F)F)c2)C3=O)n1` Test system: human orexin 2 receptor (Homo sapiens) Read-out: log10 Kd Value: ?
2.36
